Dear all, this message contains Ki results, target or system human Factor XIa (Homo sapiens (Human), UniProt P03951).
Give bare numbers, in nM.

Consider the following illustrative entries.
Which Ki value belongs to CC(=O)c1ccc(Cl)c(F)c1/C=C/C(=O)N1CCc2c(-c3ccc(C(N)=O)cc3)cccc2[C@@H]1C(=O)Nc1ccc(C(=O)O)cc1 [Example 120] ?
291

Which Ki value belongs to CCOC(=O)c1ccc(NC(=O)C2c3cccc(-c4ccc(C(=O)NC)nc4)c3CCN2C(=O)/C=C/c2c(-n3cnnn3)ccc(Cl)c2F)cc1 (stereo not drawn) [Example 188] ?
3860

Let us move to another entry and its Ki.
Which Ki value belongs to CC(=O)c1ccc(Cl)c(F)c1/C=C/C(=O)N1CCc2c(O)cccc2C1C(=O)Nc1ccc(C(=O)O)cc1 (stereo not drawn) [Example 146] ?
24.8

* * *

Dear all, this message contains Ki results, target or system human Factor XIa (Homo sapiens (Human), UniProt P03951).
Structures can show the parent of a compound that is named as a salt.
One number for each entry, in nM.

# returns recorded Ki (system: human Factor XIa (Homo sapiens (Human), UniProt P03951)) for CCOC(=O)c1ccc(NC(=O)[C@H]2c3cccc(OCCC4CCNCC4)c3CCN2C(=O)/C=C/c2c(-n3cnnn3)ccc(Cl)c2F)cc1 [Example 160, TFA salt]
# Sequence (P03951 whole entry, looked up): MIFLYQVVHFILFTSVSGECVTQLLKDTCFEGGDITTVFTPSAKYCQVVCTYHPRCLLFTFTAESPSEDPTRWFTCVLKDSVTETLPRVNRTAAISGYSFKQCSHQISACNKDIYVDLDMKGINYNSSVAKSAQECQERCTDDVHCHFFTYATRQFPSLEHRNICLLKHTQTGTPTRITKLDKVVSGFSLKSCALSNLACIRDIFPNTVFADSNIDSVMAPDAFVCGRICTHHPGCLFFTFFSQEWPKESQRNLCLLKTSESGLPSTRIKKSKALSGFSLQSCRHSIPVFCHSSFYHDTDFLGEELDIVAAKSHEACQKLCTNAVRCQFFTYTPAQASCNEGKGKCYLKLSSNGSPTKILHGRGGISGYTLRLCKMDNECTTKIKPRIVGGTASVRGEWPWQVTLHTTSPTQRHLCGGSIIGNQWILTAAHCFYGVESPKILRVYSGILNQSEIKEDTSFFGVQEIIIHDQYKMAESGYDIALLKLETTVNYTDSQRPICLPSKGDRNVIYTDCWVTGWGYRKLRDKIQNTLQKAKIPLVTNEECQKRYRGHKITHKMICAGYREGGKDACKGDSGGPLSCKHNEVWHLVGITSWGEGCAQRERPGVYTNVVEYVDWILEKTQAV
# Sequence (P03951 whole entry partner, looked up): as the sequence (P03951 whole entry, looked up) above
3530

Please look at the items below and tell me Ki for each one, in order.
1. CC(=O)c1ccc(Cl)c(F)c1/C=C/C(=O)N1CCc2c(-c3ccc(C(=O)NCCN(C)C)cc3)cccc2[C@@H]1C(=O)Nc1ccc(C(=O)O)cc1 [Example 150, TFA salt]
2. COCCNC(=O)c1cccc2c1CCN(C(=O)/C=C/c1cc(Cl)ccc1-n1cnnn1)C2C(=O)Nc1ccc(C(=O)O)cc1 (stereo not drawn)
3. CNC(=O)c1ccc(-c2cccc3c2CCN(C(=O)/C=C/c2c(-n4cnnn4)ccc(Cl)c2F)C3C(=O)NCC(=O)OC)cc1 (stereo not drawn)
4. CCOC(=O)c1ccc(NC(=O)C2c3cccc(OCCC4CCN(C)CC4)c3CC(C)(C)N2C(=O)/C=C/c2c(-n3cnnn3)ccc(Cl)c2F)cc1 (stereo not drawn) [Example 152, TFA salt]
5. CCOC(=O)[C@H]1CCCN(C(=O)c2cccc3c2CCN(C(=O)/C=C/c2c(-n4cnnn4)ccc(Cl)c2F)C3C(=O)Nc2ccc(NC(=O)OC)cc2)C1 (stereo partly drawn)

37
21.3
342
100
332

Please look at the items below and tell me Ki for each one, in order.
1. CN(C)CCNC(=O)c1ccc(-c2cccc3c2CCN(C(=O)/C=C/c2c(-n4cnnn4)ccc(Cl)c2F)[C@H]3C(=O)Nc2ccc(C(=O)OCc3ccccn3)cc2)cc1
2. CNC(=O)c1ccc(-c2cccc3c2CCN(C(=O)/C=C/c2c(-n4cnnn4)ccc(Cl)c2F)C3C(=O)Nc2ccc3c(c2)CN=N3)cc1 (stereo not drawn)
3. COC(=O)Nc1ccc(-c2cccc3c2CCN(C(=O)/C=C/c2c(-n4cnnn4)ccc(Cl)c2F)[C@H]3C(=O)Nc2ccc(F)cc2)cc1

132
20.1
3370

Please look at the items below and tell me Ki for each one, in order.
1. O=C(O)c1ccc(NC(=O)C2c3cccc(C(=O)N4CCNCC4)c3CCN2C(=O)/C=C/c2c(-n3cnnn3)ccc(Cl)c2F)cc1 (stereo not drawn) [Example 29]
2. CC(C)(C)OC(=O)c1ccc(NC(=O)C2c3cccc(C(=O)N4CCN(C(=O)OC(C)(C)C)CC4)c3CCN2C(=O)/C=C/c2c(-n3cnnn3)ccc(Cl)c2F)cc1 (stereo not drawn)
3. CN(C)CCNC(=O)c1ccc(-c2cccc3c2CCN(C(=O)/C=C/c2c(-n4cnnn4)ccc(Cl)c2F)[C@H]3C(=O)Nc2ccc(C(=O)OCCN(C)C)cc2)cc1 [Example 93, bis-TFA salt]
4. CNC(=O)c1ccc(-c2cccc3c2CCN(C(=O)/C=C/c2c(-n4cnnn4)ccc(Cl)c2F)C3C(=O)NCc2nccn2C)cc1 (stereo not drawn)
5. CC[C@H](C)NC(=O)C1c2cccc(-c3ccc(C(=O)NC)cc3)c2CCN1C(=O)/C=C/c1c(-n2cnnn2)ccc(Cl)c1F (stereo partly drawn)

1: 553; 2: 170; 3: 951; 4: 534; 5: 49.2

# returns recorded Ki (system: human Factor XIa (Homo sapiens (Human), UniProt P03951)) for CCOC(=O)CCCNC(=O)c1cccc2c1CCN(C(=O)/C=C/c1c(-n3cnnn3)ccc(Cl)c1F)C2C(=O)Nc1ccc(F)cc1 (stereo not drawn)
580
